ASSAY SYSTEM: Class III PI3K hVPS34 (Homo sapiens)
Sequence (Q8NEB9 whole entry): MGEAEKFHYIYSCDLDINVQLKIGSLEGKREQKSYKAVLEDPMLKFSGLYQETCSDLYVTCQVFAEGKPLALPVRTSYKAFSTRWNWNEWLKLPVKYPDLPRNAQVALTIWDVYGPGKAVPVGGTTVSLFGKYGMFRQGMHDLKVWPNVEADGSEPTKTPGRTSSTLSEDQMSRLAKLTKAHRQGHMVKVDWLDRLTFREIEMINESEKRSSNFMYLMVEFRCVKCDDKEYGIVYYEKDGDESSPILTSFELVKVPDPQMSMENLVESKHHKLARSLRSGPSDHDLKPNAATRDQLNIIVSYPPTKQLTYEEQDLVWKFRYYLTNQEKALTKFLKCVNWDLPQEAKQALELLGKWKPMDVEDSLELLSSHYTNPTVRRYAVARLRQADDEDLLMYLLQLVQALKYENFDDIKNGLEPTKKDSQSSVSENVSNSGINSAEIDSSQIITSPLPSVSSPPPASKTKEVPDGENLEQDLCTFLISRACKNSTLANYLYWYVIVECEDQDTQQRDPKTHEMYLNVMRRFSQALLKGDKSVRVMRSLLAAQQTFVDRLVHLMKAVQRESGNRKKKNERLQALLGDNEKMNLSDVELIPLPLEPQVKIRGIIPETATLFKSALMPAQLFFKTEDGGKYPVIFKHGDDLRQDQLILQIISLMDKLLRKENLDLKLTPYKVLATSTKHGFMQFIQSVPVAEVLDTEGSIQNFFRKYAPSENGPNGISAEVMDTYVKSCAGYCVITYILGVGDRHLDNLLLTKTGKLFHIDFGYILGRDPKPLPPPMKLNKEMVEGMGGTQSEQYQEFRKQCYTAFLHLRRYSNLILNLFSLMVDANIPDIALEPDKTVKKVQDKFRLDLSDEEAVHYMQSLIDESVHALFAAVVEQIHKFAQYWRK
OUTCOME MEASURE: pIC50
To interpret pIC50, take it as minus log10 of a concentration measured in moles per litre.

Query: Under Class III PI3K hVPS34 (Homo sapiens): pIC50 value of Cn1c(=O)n(-c2ccc(C(C)(C)C#N)cc2)c2c3cc(-c4cnc5ccccc5c4)ccc3ncc21 [NVP-BEZ-235] ?
Result: 8.22
